System: UDP-3-O-acyl-N-acetylglucosamine deacetylase (Pseudomonas aeruginosa (strain ATCC 15692 / PAO1 / 1C / PRS 101 / LMG12228)), P47205 [C40S]
Sequence (P47205 whole entry C40S): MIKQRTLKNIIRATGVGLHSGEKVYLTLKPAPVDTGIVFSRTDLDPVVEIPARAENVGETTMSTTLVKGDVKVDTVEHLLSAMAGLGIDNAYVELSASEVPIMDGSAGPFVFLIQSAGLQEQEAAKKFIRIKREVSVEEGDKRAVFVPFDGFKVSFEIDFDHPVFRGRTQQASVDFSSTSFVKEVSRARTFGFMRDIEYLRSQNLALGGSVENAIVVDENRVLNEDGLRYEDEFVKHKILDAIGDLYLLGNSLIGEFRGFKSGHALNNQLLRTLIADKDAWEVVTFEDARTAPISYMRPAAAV
Recorded ΔTm, one value per entry.
measured_metric: ΔTm (°C)

| compound | measured_metric | experimental_result |
| --- | --- | --- |
| C[C@@](CCN1Cc2cc(C#CC#CCOC(=O)N3CCC(O)CC3)cn2C1=O)(C(=O)NO)S(C)(=O)=O | ΔTm | 12.9 |
| COc1ccc(-c2cn3c(n2)CN(CC[C@](C)(C(=O)NO)S(C)(=O)=O)C3=O)c(F)c1 | ΔTm | 6.9 |
| C[C@@](CCN1Cc2cc(C#CC#CCNS(C)(=O)=O)cn2C1=O)(C(=O)NO)S(C)(=O)=O | ΔTm | 10.8 |
| C[C@@](CCN1Cc2cc(C#CC#C[C@H]3C[C@@H]3CO)sc2C1=O)(C(=O)NO)S(C)(=O)=O | ΔTm | 15 |
| COc1ccc(-c2cnc3c(c2)CN(CCC(C)(C(=O)NO)S(C)(=O)=O)C3=O)c(F)c1 (racemic) | ΔTm | 7 |
| C[C@@](CCN1Cc2cc(C#CC#C[C@@H]3C[C@H]3CO)cn2C1=O)(C(=O)NO)S(C)(=O)=O | ΔTm | 13.6 |
| COc1ccc(-c2cn(CC[C@](C)(C(=O)NO)S(C)(=O)=O)c(=O)o2)c(F)c1 | ΔTm | 9.9 |
| C[C@@](CCN1Cc2cc(C#CC#CC3(O)COC3)sc2C1=O)(C(=O)NO)S(C)(=O)=O | ΔTm | 12.2 |

----------
Recorded MIC, one value per entry.
Tested on: Escherichia coli
protocol: microbe, parasite or virus in culture
protocol_conditions: ATCC 25922
Description: Antibacterial activity against wild-type Escherichia coli ATCC 25922 by broth microdilution method

| compound | test_system | unit_tag | sign | MIC |
| --- | --- | --- | --- | --- |
| CC(C)(O)C#CC#Cc1cc2n(c1)C(=O)N(CC[C@](C)(C(=O)NO)S(C)(=O)=O)C2 | Escherichia coli | mg/L | = | 0.5 |
| C[C@@](CCN1Cc2cc(C#Cc3ccc(C4(CO)CC4)cc3)cn2C1=O)(C(=O)NO)S(C)(=O)=O | Escherichia coli | mg/L | = | 0.12 |
| C[C@@](CCN1Cc2cc(C#CC#CC3(N)CC3)sc2C1=O)(C(=O)NO)S(C)(=O)=O.Cl | Escherichia coli | mg/L | = | 0.25 |
| C[C@@](CCN1Cc2cc(C#Cc3ccc(CN4CCOCC4)cc3)ccc2C1=O)(C(=O)NO)S(C)(=O)=O | Escherichia coli | mg/L | = | 0.12 |
| COc1ccc(-c2cn(CC[C@](C)(C(=O)NO)S(C)(=O)=O)c(=O)o2)c(F)c1 | Escherichia coli | mg/L | = | 8 |
| COc1ccc(-c2cnc3c(c2)CN(CCC(C)(C(=O)NO)S(C)(=O)=O)C3=O)c(F)c1 (racemic) | Escherichia coli | mg/L | = | 32 |
| C[C@@](CCN1Cc2cc(C#Cc3ccc([C@H]4C[C@@H]4CO)cc3)cn2C1=O)(C(=O)NO)S(C)(=O)=O | Escherichia coli | mg/L | ≤ | 0.06 |
| CC(C)(O)C#CC#Cc1cc2c(s1)C(=O)N(CC[C@](C)(C(=O)NO)S(C)(=O)=O)C2 | Escherichia coli | mg/L | = | 0.5 |
| C[C@@](CCN1Cc2cc(C#CC#CC3(O)COC3)cn2C1=O)(C(=O)NO)S(C)(=O)=O | Escherichia coli | mg/L | = | 1 |
| CC(C)(O)c1ccc(C#Cc2cc3n(c2)C(=O)N(CC[C@](C)(C(=O)NO)S(C)(=O)=O)C3)cc1 | Escherichia coli | mg/L | = | 0.12 |
| C[C@@](CCN1Cc2cc(C#CC#CC3(CO)CC3)cn2C1=O)(C(=O)NO)S(C)(=O)=O | Escherichia coli | mg/L | = | 0.25 |
| C[C@@](CCN1Cc2cc(C#CC#CCNS(C)(=O)=O)cn2C1=O)(C(=O)NO)S(C)(=O)=O | Escherichia coli | mg/L | = | 2 |
| COc1ccc(-c2ccc3c(c2)CN(CC[C@](C)(C(=O)NO)S(C)(=O)=O)C3=O)c(F)c1 | Escherichia coli | mg/L | ≤ | 0.06 |
| C[C@@](CCN1Cc2cc(C#CC#CC3(O)COC3)ccc2C1=O)(C(=O)NO)S(C)(=O)=O | Escherichia coli | mg/L | = | 16 |
| C[C@@](CCN1Cc2cc(C#Cc3ccc(C4(O)COC4)cc3)sc2C1=O)(C(=O)NO)S(C)(=O)=O | Escherichia coli | mg/L | = | 0.12 |
| C[C@@](CCN1Cc2cc(C#CC#CC3(N)CC3)cn2C1=O)(C(=O)NO)S(C)(=O)=O.Cl | Escherichia coli | mg/L | = | 0.25 |
| C[C@@](CCN1Cc2cc(C#CC#CCOC(=O)N3CCC(O)CC3)cn2C1=O)(C(=O)NO)S(C)(=O)=O | Escherichia coli | mg/L | = | 0.5 |

----------
protocol: physchem
protocol_conditions: n-octanol/phosphate buffered saline, pH 7.4
Description: n-Octanol/phosphate buffered saline partition coefficient, log D of the compound at pH 7.4 by LC-UV method
Recorded logD, one value per entry.
measured_metric: logD

| smiles | experimental_result |
| --- | --- |
| C[C@@](CCN1Cc2cc(C#Cc3ccc([C@@H]4C[C@H]4CO)cc3)cn2C1=O)(C(=O)NO)S(C)(=O)=O | 2 |
| COc1ccc(-c2ccc3c(c2)oc(=O)n3CC[C@](C)(C(=O)NO)S(C)(=O)=O)c(F)c1 | 2.2 |
| C[C@@](CCN1Cc2cc(C#Cc3ccc(CN4CCOCC4)cc3)sc2C1=O)(C(=O)NO)S(C)(=O)=O | 1.8 |
| C[C@@](CCN1Cc2cc(C#CC#C[C@@H]3C[C@H]3CO)sc2C1=O)(C(=O)NO)S(C)(=O)=O | 1.3 |
| C[C@@](CCN1Cc2cc(C#CC#CC3(CO)CC3)sc2C1=O)(C(=O)NO)S(C)(=O)=O | 1.2 |
| CC(C)(O)C#CC#Cc1cc2n(c1)C(=O)N(CC[C@](C)(C(=O)NO)S(C)(=O)=O)C2 | 0.9 |
| CC(C)(O)c1ccc(C#Cc2cc3n(c2)C(=O)N(CC[C@](C)(C(=O)NO)S(C)(=O)=O)C3)cc1 | 1.9 |
| C[C@@](CCN1Cc2cc(C#Cc3ccc(CNS(C)(=O)=O)cc3)cn2C1=O)(C(=O)NO)S(C)(=O)=O | 1 |

----------
Recorded AUC(0-t) at 24 h, one value per entry.
protocol: in vivo
protocol_conditions: NMRI/ICR CD-1, mouse, sc, 50 mg/kg
measured_metric: AUC(0-t) at 24 h (ng·h/mL)

| smiles | measured_metric | experimental_result |
| --- | --- | --- |
| C[C@@](CCN1Cc2cc(C#CC#C[C@H]3C[C@@H]3CO)cn2C1=O)(C(=O)NO)S(C)(=O)=O | AUC(0-t) at 24 h | 41000 |
| C[C@@](CCN1Cc2cc(C#Cc3ccc([C@H](O)CO)cc3)cn2C1=O)(C(=O)NO)S(C)(=O)=O | AUC(0-t) at 24 h | 76500 |
| C[C@@](CCN1Cc2cc(C#CC#CC3(CO)CC3)cn2C1=O)(C(=O)NO)S(C)(=O)=O | AUC(0-t) at 24 h | 33000 |
| COc1ccc(-c2ccn(CC[C@](C)(C(=O)NO)S(C)(=O)=O)c(=O)c2)c(F)c1 | AUC(0-t) at 24 h | 11700 |

----------
Notes on ΔTm obtained with UDP-3-O-acyl-N-acetylglucosamine deacetylase (Escherichia coli K-12), P0A725 [C125S].
Sequence (P0A725 whole entry C125S): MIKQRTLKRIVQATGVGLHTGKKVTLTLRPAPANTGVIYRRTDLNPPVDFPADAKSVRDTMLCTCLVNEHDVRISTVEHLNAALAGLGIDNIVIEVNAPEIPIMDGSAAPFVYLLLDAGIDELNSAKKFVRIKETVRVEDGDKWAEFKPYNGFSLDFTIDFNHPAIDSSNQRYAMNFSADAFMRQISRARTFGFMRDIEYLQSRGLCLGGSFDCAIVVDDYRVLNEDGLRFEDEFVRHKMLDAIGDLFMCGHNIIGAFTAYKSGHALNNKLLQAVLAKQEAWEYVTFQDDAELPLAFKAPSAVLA

| molecule | ΔTm |
| --- | --- |
| C[C@@](CCN1Cc2cc(C#CC#C[C@@H]3C[C@H]3CO)sc2C1=O)(C(=O)NO)S(C)(=O)=O | 11.2 °C |
| C[C@@](CCN1Cc2cc(C#CC#CCNS(C)(=O)=O)cn2C1=O)(C(=O)NO)S(C)(=O)=O | 8 °C |
| C[C@@](CCN1Cc2cc(C#Cc3ccc(CN4CCOCC4)cc3)ccc2C1=O)(C(=O)NO)S(C)(=O)=O | 11 °C |
| C[C@@](CCN1Cc2cc(C#Cc3ccc(CNS(C)(=O)=O)cc3)cn2C1=O)(C(=O)NO)S(C)(=O)=O | 11.2 °C |
| C[C@@](CCN1Cc2cc(C#Cc3ccc([C@H](O)CO)cc3)sc2C1=O)(C(=O)NO)S(C)(=O)=O | 12.1 °C |
| COc1ccc(-c2cnc3c(c2)CN(CCC(C)(C(=O)NO)S(C)(=O)=O)C3=O)c(F)c1 (racemic) | 5.6 °C |
| CC(C)(O)c1ccc(C#Cc2cc3n(c2)C(=O)N(CC[C@](C)(C(=O)NO)S(C)(=O)=O)C3)cc1 | 11.8 °C |
